# tested system: T1, IL-1β R4A mutant (human, UniProt P01584 117-269)
# T1 construct: site-directed mutant
# T1 sequence (P01584 other isoform, or with tags, fused parts or gaps, stated change not applied): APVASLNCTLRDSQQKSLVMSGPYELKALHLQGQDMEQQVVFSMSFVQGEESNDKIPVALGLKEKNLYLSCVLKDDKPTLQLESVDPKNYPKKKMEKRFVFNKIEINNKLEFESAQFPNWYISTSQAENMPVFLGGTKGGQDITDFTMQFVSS
# assay text: binding to site-directed IL-1β mutant; X = abrogation of binding
measured endpoint: binding result

8.18.1 (antibody, human IgG4, V domains shown, lambda; also called mAb 8.18.1) VH: QVQLQESGPGLVKPSETLSLTCTVSGGSVSSGGYYWSWIRQPPGKGLEWIGYFYYSGSPNYNPSLKRRIAISVDTSKNQFSLRLSSVTAADTAVYYCARDPMHYYGMDVWGQGTTVTVSS VL: SSELTQPPSVSVFPGQTANITCSGDKLGDKFACWYQQKPGQSPVLVIYRDNKRPSGIPERFSGSNSGNTATLTISGTQAMDEADYYCQAWDSSTYVVFGGGTKLTVL	no binding
5.5.1 (antibody, IgG4, V domains shown, lambda; also called mAb 5.5.1; Ab 5.5.1) VH: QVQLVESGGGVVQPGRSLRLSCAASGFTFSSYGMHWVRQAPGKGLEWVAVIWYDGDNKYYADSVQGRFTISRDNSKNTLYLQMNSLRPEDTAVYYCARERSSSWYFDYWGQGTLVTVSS VL: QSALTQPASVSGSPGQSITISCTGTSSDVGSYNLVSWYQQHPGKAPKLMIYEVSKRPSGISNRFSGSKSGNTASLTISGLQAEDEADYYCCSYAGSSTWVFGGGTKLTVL	no binding
4.20.1 (antibody, human IgG4, V domains shown, kappa; also called 4.20.2) VH: QVQLVESGGGVVQPGRSLRLSCAASGFTFSNYGMNWVRQAPGKGLEWVAVIWYDGNNKSEADSVKGRFTISRDNSKNTLYLQMNSLRAEDTAVYYCARDSRSGPFDYWGQGTLVTVSS VL: EIVLTQSPDFQSVTPKEKVTITCRASQSIGSSLHWYQQKPDQSPKLLIKFASQSFSGVPSRISGSGSGTDFTLTINSLEAEDAATYYCHQSSSLPFTFGPGTKVDIK	no binding
5.36.1 (antibody, human IgG4, V domains shown, kappa) VH: QVQLQQSGPGLVKPSQTLSLTCAISGDSVSSNSAAWNWIRQSPSRGLEWLGRTYYRSKWYNDYAVSVKSRITINPDTSKNQFSLQLNSVTPEDTAVYYCAREEQQLVRYYYYYGMDVWGQGTTVTVS VL: DIVMTQTPLSLSVTPGQPASISCKSSQSLLHSDGRTYLYWYLQRPGQPPQLLIYEASYRFSGVPDRFSGSGSGTDFTLKISRVEAEDVGIYYCMQSIQLPRTFGQGTRLEIK	no binding
